Target: T1, human ACTH 1-39 (human, not fully specified; N-terminal biotin in the ELISA and HTRF binding assays (p-1487, p-1488); 125I on Tyr23 in Example 9 (p-1542); unlabelled in SPR. Letters unchanged.)
T1 peptide: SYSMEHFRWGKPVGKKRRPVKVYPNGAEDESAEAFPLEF
Assay: cell-based or functional assay
OUTCOME_MEASURE: IC50, ACTH-induced cAMP, MC4R cells (nM)
One number for each entry, in nM.

The examples below pair each entry with its known result.
{"BINDER": "Ab11 (antibody, V domains shown) VH: QSLEESGGRLVTPGTSLTLTCTASGFSLSAYDILWVRQAPGKGLESIGMMYDDGDTYYATWAKGRFIISRTSTTMDLKIISPTTEDTATYFCVKGVSNIWGQGTLVTVSS VL: DIVMTQIPASVEAAVGGTVTIKCQASQSIDSSLAWYQQKPGQPPKLLIYSASTLASGVPSRFKGSGSGTEFTLTIGDLECADAATYYCQSYDGSSSSYYGIGFGGGTEVVVKR", "UNIT_STRING": "nM", "IC50, ACTH-induced cAMP, MC4R cells": 49.4}
{"BINDER": "Ab10 (antibody, V domains shown) VH: QSVEESGGRLVTPGTPLTLTCTVSGFSLSSADMIWVRQAPGKGLESIGMIYDDGDTYYATWAKGRFTISKTSTTVDLKIISPTTEDTATYFCVKGVSSVWGQGTLVTVSS VL: DVVMTQTPASVEAAVGGTVTINCQASENIYRSLAWYQQKPGQPPKLLIYSASTLASGVPSRFKGSGSGTEFTLTISDLECADAATYYCQSYDGSSSSSYGVGFGGGTEVVVKR", "UNIT_STRING": "nM", "IC50, ACTH-induced cAMP, MC4R cells": 66.3}

Attention now shifts to the item below.
For the binder Ab3 (antibody, V domains shown) VH: QSLEESGGRLVTPGTPLTLTCTVSGSSLSNFDMIWVRQAPGKGLESIGIIYDFGSTYYASWAKGRFTISRTSSTTVDLKIISPTIEDTATYFCVKGVSNIWGQGTLVTVSS VL: DVVMTQTPASVEAAVGGTVTIKCQASEDISSNLAWYQQKLGQPPKLLIYSASTLASGVPSRFKGSGSGTEFTLAISDLECADAATYYCQSYDGSSSSSYGIGFGGGTEVVVKR , what IC50, ACTH-induced cAMP, MC4R cells is on record? 54.2
